assay: Half life in human microsomes; format: ADME, Microsome
endpoint: half-life

Query: Recorded half-life of `CC[C@@H]1C[C@]1(NC(=O)[C@@H]1C[C@@H](Oc2cc(-c3csc(NC(C)C)n3)nc3c(Cl)c(OCCN4CCOCC4)ccc23)CN1C(=O)[C@@H](NC(=O)O[C@@H]1C[C@@H]2C[C@@H]2C1)C(C)(C)C)C(=O)O` , please.
Result: > 6.58 h

###

experiment: Permeability from apical to basolateral side in human Caco2 cells; type: ADME, cell-based; conditions: Caco-2, read-out: permeability
Quick list: Papp A→B per entry.
Give the value in ×10⁻⁶ cm/s but do not write ×10⁻⁶ cm/s after it.

Past entries and their recorded results:
smiles entry: CC[C@@H]1C[C@]1(NC(=O)[C@@H]1C[C@@H](Oc2cc(-c3csc(NC(C)C)n3)nc3c(Cl)c(OC)ccc23)CN1C(=O)[C@@H](NC(=O)O[C@H]1C[C@@H]2[C@H](C1)C2(F)F)C(C)(C)C)C(=O)O
unit: ×10⁻⁶ cm/s
measured result: 4.5

smiles entry: CC[C@@H]1C[C@]1(NC(=O)[C@@H]1C[C@@H](Oc2cc(-c3csc(NC(C)C)n3)nc3c(Cl)c(OCCN4CC[C@@H](OC)C4)ccc23)CN1C(=O)[C@@H](NC(=O)O[C@@H]1C[C@@H]2C[C@@H]2C1)C(C)(C)C)C(=O)O
unit: ×10⁻⁶ cm/s
measured result: 6.1

smiles entry: CC[C@@H]1C[C@]1(NC(=O)[C@@H]1C[C@@H](Oc2cc(-c3csc(NC(C)C)n3)nc3c(Cl)c(OCCN4CCOCC4)ccc23)CN1C(=O)[C@@H](NC(=O)O[C@@H]1C[C@@H]2C[C@@H]2C1)C(C)(C)C)C(=O)O
unit: ×10⁻⁶ cm/s
measured result: 0.8

From here, focus on the item given below.
Query: Record request: Papp A→B value, item `CC[C@@H]1C[C@]1(NC(=O)[C@@H]1C[C@@H](Oc2cc(-c3csc(NC(C)C)n3)nc3c(Cl)c(OCCN4CCCCC4)ccc23)CN1C(=O)[C@@H](NC(=O)O[C@@H]1C[C@@H]2C[C@@H]2C1)C(C)(C)C)C(=O)O`
Result: 6.7

###

Items are presented alongside their recorded solubility thermodynamic.
assay: Thermodynamic solubility of the compound at pH 7.3; type: physicochemical; conditions: buffer, read-out: Therm_solubility
Dear colleague, please return just the value in µM, with no unit written.

Worked set:
compound: CC[C@@H]1C[C@]1(NC(=O)[C@@H]1C[C@@H](Oc2cc(-c3csc(NC(C)C)n3)nc3c(Cl)c(OCCN4CC[C@@H](OC)C4)ccc23)CN1C(=O)[C@@H](NC(=O)O[C@@H]1C[C@@H]2C[C@@H]2C1)C(C)(C)C)C(=O)O
solubility thermodynamic (µM): 59

compound: CC[C@@H]1C[C@]1(NC(=O)[C@@H]1C[C@@H](Oc2cc(-c3csc(NC(C)C)n3)nc3c(Cl)c(OC)ccc23)CN1C(=O)[C@@H](NC(=O)O[C@@H]1C[C@@H]2[C@H](C1)C2(F)F)C(C)(C)C)C(=O)O
solubility thermodynamic (µM): 9

compound: CC[C@@H]1C[C@]1(NC(=O)[C@@H]1C[C@@H](Oc2cc(-c3csc(NC(C)C)n3)nc3c(Cl)c(OC)ccc23)CN1C(=O)[C@@H](NC(=O)O[C@@H]1C[C@@H]2C[C@@H]2C1)C(C)(C)C)C(=O)O
solubility thermodynamic (µM): 72

compound: CC[C@@H]1C[C@]1(NC(=O)[C@@H]1C[C@@H](Oc2cc(-c3csc(NC(C)C)n3)nc3c(Cl)c(OCCN4CCOCC4(C)C)ccc23)CN1C(=O)[C@@H](NC(=O)O[C@@H]1C[C@@H]2C[C@@H]2C1)C(C)(C)C)C(=O)O
solubility thermodynamic (µM): 22

Note: attention shifts to another entry.
Query: // solubility thermodynamic lookup, key: CC[C@@H]1C[C@]1(NC(=O)[C@@H]1C[C@@H](Oc2cc(-c3csc(NC(C)C)n3)nc3c(Cl)c(OCCN4CCOCC4)ccc23)CN1C(=O)[C@@H](NC(=O)O[C@@H]1C[C@@H]2C[C@@H]2C1)C(C)(C)C)C(=O)O [VEDROPREVIR]
Result: 38
